Molecular target: T1, human IgEλ (U266 derived) (human, UniProt P01854-1 1-428)
T1 construct: Whole IgE purified from U266 cells (Ikeyama et al. 1986); labelled with europium cryptate or biotin in some assays; also called human IgE (U266-derived); human IgE lambda
T1 sequence (P01854 other isoform, or with tags, fused parts or gaps): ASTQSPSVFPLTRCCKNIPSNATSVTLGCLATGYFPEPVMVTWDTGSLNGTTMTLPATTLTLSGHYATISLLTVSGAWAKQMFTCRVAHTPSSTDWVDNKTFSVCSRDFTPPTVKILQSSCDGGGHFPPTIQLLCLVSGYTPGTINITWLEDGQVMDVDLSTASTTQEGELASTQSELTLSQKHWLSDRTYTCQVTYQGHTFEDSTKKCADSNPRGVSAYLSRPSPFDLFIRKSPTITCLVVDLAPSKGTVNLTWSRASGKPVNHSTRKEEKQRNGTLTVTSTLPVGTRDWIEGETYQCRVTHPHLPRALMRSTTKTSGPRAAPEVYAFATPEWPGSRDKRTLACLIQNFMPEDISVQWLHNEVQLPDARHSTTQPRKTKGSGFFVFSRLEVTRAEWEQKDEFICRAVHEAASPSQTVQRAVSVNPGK
Assay: SPR (BIAcore 2000): IgG captured on protein G', IgE as analyte, bivalent analyte model; geomean
Quick reference: Kd of the listed items.
The response must be a number in nM with no trailing unit.

Some solved cases for reference:
- Antibody 11 IgG (antibody, V domains shown, Whole human IgG (section 1.4: IgG1)) VH: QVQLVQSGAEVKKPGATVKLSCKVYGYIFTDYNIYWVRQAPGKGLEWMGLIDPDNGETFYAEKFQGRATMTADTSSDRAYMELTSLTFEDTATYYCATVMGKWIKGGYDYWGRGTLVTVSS VL: QSVLTQPPSVSGAPGQRVTISCTGSSSNIGAGYDVHWYQQLPGTAPKLLIYDNFNRPSGVPDRFSGSKSGTSASLAIIGLQTEDEADYYCQSYDSPTLTSPFGTGTKLTVL: 1.6
- Antibody 6 IgG (antibody, V domains shown, Whole human IgG (section 1.4: IgG1)) VH: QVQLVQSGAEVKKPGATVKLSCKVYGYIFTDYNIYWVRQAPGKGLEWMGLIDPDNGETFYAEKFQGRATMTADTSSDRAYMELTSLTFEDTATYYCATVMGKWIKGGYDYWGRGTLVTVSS VL: QSVLTQPPSVSGAPGQRVTISCTGSSSNIGAGYDVHWYQQLPGTAPKLLIYDNFNRPSGVPDRFSGSKSGTSASLAIIGLQTEDEADYYCQSYDSTMRHGPFGTGTKLTVL: 2.1

**Q:** Entry under review: Antibody 20 IgG (antibody, V domains shown, Whole human IgG (section 1.4: IgG1)) VH: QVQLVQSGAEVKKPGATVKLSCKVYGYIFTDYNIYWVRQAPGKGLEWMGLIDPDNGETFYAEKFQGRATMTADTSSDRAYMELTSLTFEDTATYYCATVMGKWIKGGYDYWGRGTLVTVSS VL: QSVLTQPPSVSGAPGQRVTISCTGSSSNIGAGYDVHWYQQLPGTAPKLLIYDNFNRPSGVPDRFSGSKSGTSASLAIIGLQTEDEADYYCQSYDSSTSSSPFGTGTKLTVL . Reported Kd?
**A:** 3.3
